Measured EC50, listed per entry for reference.
tested on: Trypanosoma brucei brucei; test: Antitrypanosomal activity against Trypanosoma brucei brucei BF427 measured after 48 hrs by Alamar blue assay; format: functional, organism-based; settings: BF427, 48 h

Missing value: EC50, Trypanosoma brucei brucei, entry O=C1CN(Cc2ccccc2)C(=S)N1c1ccc(Cl)c(C(F)(F)F)c1 . Fill in?
> 10000 nM

----------
system: Trypanosoma brucei brucei; assay: Antitrypanosomal activity against Trypanosoma brucei brucei BF427 measured after 48 hrs by Alamar blue assay; format: functional, organism-based; conditions: BF427, 48 h
// log10 of EC50 lookup, one value per entry
Response schema: value (number) is log10 of EC50 in units of nM.

{"chemical smiles": "O=C1CN(Cc2ccc(F)cc2F)C(=S)N1c1ccc(N2CCCC2)c(Cl)c1", "log10 of EC50": 1.00}
{"chemical smiles": "COc1cc(F)ccc1CN1CC(=O)N(c2ccc(N(C)C)c(OC)c2)C1=S", "log10 of EC50": 1.04}
{"chemical smiles": "COc1cc(N2C(=O)CN(Cc3ccc(F)c(F)c3)C2=S)ccc1N(C)C", "log10 of EC50": 1.45}
{"chemical smiles": "COc1ccc(N2C(=O)CN(Cc3ccc(F)cc3F)C2=S)cc1OC", "log10 of EC50": 1.52}
{"chemical smiles": "CN(C)c1ccc(N2C(=O)CN(Cc3ccc(F)cc3F)C2=S)cc1Cl", "log10 of EC50": 0.60}

Any idea what its log10 of EC50 is? The compound is COc1ccc(N2C(=O)CN(Cc3ccc(Cl)cc3)C2=S)cc1Cl
2.93

Also need COc1ccc(N2C(=O)CN(Cc3ccccc3)C2=S)cc1N(C)C , thanks.
2.63

Another compound to check: COc1ccc(N2C(=O)CN(Cc3ccc(C#N)cc3)C2=S)cc1Cl
4.25

----------
test system: Trypanosoma brucei brucei; assay: Antitrypanosomal activity against Trypanosoma brucei brucei BF427 measured after 48 hrs by Alamar blue assay; format: functional, organism-based; details: BF427, 48 h
pEC50: −log10 of the molar value.
experimental endpoint: pEC50

{"chemical smiles": "CN(C)c1ccc(N2C(=O)CN(Cc3ccc(F)cc3)C2=S)cc1Cl", "pEC50": "8.49 to 8.52"}
{"chemical smiles": "CC(=O)c1ccc(N2C(=O)CN(Cc3ccccc3)C2=S)cc1", "pEC50": "< 5.00"}
{"chemical smiles": "O=C1CN(Cc2ccccc2)C(=S)N1c1cccc(Cl)c1", "pEC50": "< 4.70"}
{"chemical smiles": "COc1cccc(N2C(=O)CN(Cc3ccccc3)C2=S)c1", "pEC50": "< 5.00"}
{"chemical smiles": "COC(=O)c1ccc(CN2CC(=O)N(c3ccc(OC)c(Cl)c3)C2=S)cc1", "pEC50": "< 4.70"}

Next up:
Quick check: pEC50 on Trypanosoma brucei brucei, item O=C1CN(Cc2ccccc2)C(=S)N1c1ccccc1 ?
< 5.00

----------
The reader will find reported EC50 values listed item by item below.
test system: Trypanosoma brucei brucei; test: Antitrypanosomal activity against Trypanosoma brucei brucei BF427 measured after 48 hrs by Alamar blue assay; assay type: functional, organism-based; conditions: BF427, 48 h
Your answer should be a plain number; it is taken to be in nM.

Answered examples (2):
{"chemical smiles": "COc1cc(N2C(=O)CN(Cc3ccc(F)cc3)C2=S)ccc1N(C)C", "EC50 / nM": 7}
{"chemical smiles": "COc1ccc(N2C(=O)CN(Cc3cccnc3)C2=S)cc1Cl", "EC50 / nM": 3000}

The record that follows has no EC50 shown yet.
Form field: reported EC50 of COc1ccc(N2C(=O)CN(Cc3ccc(F)c(F)c3)C2=S)cc1OC
115
